These measurements were taken from ChEMBL document CHEMBL1125523.

# MEASUREMENT TARGET: Serotonin 2 (5-HT2) receptor (Homo sapiens, UniProt P41595+P28223+P28335)
# EXPERIMENT DESCRIPTION: Binding affinity towards 5-hydroxytryptamine 2 receptor expressed in CHO cell membranes using [3H]ketanserin (60 Ci/mmol, 1 nM)
MEASUREMENT TYPE: Ki (nM)

compound="O=C(O)c1cc2c3c(ccc2[nH]1)OCC(CN1CCC2(CC1)C(=O)NCN2c1ccccc1)O3 (stereo unspecified)" measurement_target="Serotonin 2 (5-HT2) receptor (Homo sapiens, UniProt P41595+P28223+P28335)" value_prefix=> reading=1722
compound="COC(=O)c1cc2c3c(ccc2[nH]1)OCC(CN1CCC(Nc2ccccc2)(C(N)=O)CC1)O3 (stereo unspecified)" measurement_target="Serotonin 2 (5-HT2) receptor (Homo sapiens, UniProt P41595+P28223+P28335)" value_prefix== reading=171
compound="O=C(OCc1ccccc1)c1cc2c3c(ccc2[nH]1)OCC(CN1CCC2(CC1)C(=O)NCN2c1ccccc1)O3 (stereo unspecified)" measurement_target="Serotonin 2 (5-HT2) receptor (Homo sapiens, UniProt P41595+P28223+P28335)" value_prefix== reading=143
compound="O=C1NCN(c2ccccc2)C12CCN(CC1COc3ccc4[nH]c(CO)cc4c3O1)CC2 (stereo unspecified)" measurement_target="Serotonin 2 (5-HT2) receptor (Homo sapiens, UniProt P41595+P28223+P28335)" value_prefix=> reading=1722
compound="NC(=O)c1cc2c3c(ccc2[nH]1)OCC(CN1CCC2(CC1)C(=O)NCN2c1ccccc1)O3 (stereo unspecified)" measurement_target="Serotonin 2 (5-HT2) receptor (Homo sapiens, UniProt P41595+P28223+P28335)" value_prefix=> reading=1722
compound="COC(=O)c1cc2c3c(ccc2[nH]1)OCC(CNCCCc1ccccc1)O3 (stereo unspecified)" measurement_target="Serotonin 2 (5-HT2) receptor (Homo sapiens, UniProt P41595+P28223+P28335)" value_prefix== reading=38.7

----------
Reported Ki is given for each of the following compounds.
# MEASUREMENT TARGET: Adrenergic receptor alpha-1 (Rattus norvegicus, UniProt P15823+P23944+P43140)
# EXPERIMENT DESCRIPTION: Binding affinity towards Alpha-1 adrenergic receptor from rat whole brain using [3H]prazosin (18.1 Ci/mmol,0.9nanoM)as radioligand
MEASUREMENT TYPE: Ki

compound="CCCCOC(=O)c1cc2c3c(ccc2[nH]1)OCC(CN1CCC2(CC1)C(=O)NCN2c1ccccc1)O3 (stereo not given)" reading="39.6 nM"
compound="COC(=O)c1cc2c3c(ccc2[nH]1)OCC(CN1CCC(n2c(O)nc4ccccc42)CC1)O3 (stereo not given)" reading="1.8 nM"
compound="O=C(NCCCc1ccccc1)c1cc2c3c(ccc2[nH]1)OCC(CNCCCc1ccccc1)O3 (stereo not given)" reading="11.4 nM"
compound="NC(=O)c1cc2c3c(ccc2[nH]1)OCC(CN1CCC2(CC1)C(=O)NCN2c1ccccc1)O3 (stereo not given)" reading="29.4 nM"
compound="COC(=O)c1cc2c3c(ccc2[nH]1)OCC(CNCCCc1ccccc1)O3 (stereo not given)" reading="0.6 nM"
